Reference for the values: patent US10682352B2

- target-under-test: IDH1 R132H (Homo sapiens (Human), UniProt O75874, R132H)
- Sequence (O75874 whole entry R132H): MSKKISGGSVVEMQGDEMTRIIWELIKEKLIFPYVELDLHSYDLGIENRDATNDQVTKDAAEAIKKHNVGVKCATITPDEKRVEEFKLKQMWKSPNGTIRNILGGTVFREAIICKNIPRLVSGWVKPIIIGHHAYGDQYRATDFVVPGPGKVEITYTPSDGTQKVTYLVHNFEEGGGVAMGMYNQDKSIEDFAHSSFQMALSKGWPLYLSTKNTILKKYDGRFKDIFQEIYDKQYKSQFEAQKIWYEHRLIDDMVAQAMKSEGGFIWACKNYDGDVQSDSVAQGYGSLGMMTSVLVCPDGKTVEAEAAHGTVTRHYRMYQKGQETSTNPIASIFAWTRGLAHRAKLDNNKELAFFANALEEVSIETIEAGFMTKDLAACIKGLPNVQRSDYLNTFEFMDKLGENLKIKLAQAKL
- measurement-protocol: Effect on the enzyme activity of IDH1 at the molecular level (NADPH consumption, diaphorase/resazurin)
- test-parameters: α-KG 1 mM, NADPH 4 μM, 60 min room temperature
- Experimental: The enzyme used in the experiment was purchased from cayman Co. The substrates α-KG, NADPH and Diaphorase were purchased from Sigma; Resazurin was purchased from J&K; and the remaining reagents were purchased from Sinopharm Chemical Reagent Co., Ltd. […] Test method: The enzyme activity of IDH1 to convert α-KG to 2HG was measured by the consumption of NADPH. […] IC50 values were calculated using GraphPad Prism software.
pIC50: −log10 of the molar value.
readout-name: pIC50

>>> observed_result("CCN1C[C@H](C(C)C)N(c2ccnc(NC3(c4cn(-c5cccc(Cl)c5)cn4)CC3)n2)C1=O")
"6.00 to 7.00"
>>> observed_result("CCN1C[C@H](C(C)C)N(c2ccnc(N[C@@H](C)c3cn(-c4ccc(Cl)cc4)cn3)n2)C1=O")
"6.00 to 7.00"
>>> observed_result("CC(C)[C@H]1CN(C)C(=O)N1c1ccnc(N[C@@H](C)c2cn(C3CCC(C)(C)CC3)cn2)n1")
"6.00 to 7.00"
>>> observed_result("C[C@H](Nc1nccc(N2C(=O)NCC23CCCC3)n1)c1cn(-c2ccc(Cl)cc2)cn1")
"6.00 to 7.00"
>>> observed_result("CC(C)[C@H]1C(C)NC(=O)N1c1ccnc(N[C@@H](C)c2cn(-c3ccc(Cl)cc3)cn2)n1 (single isomer, unassigned) [Compound 87]")
"> 7.00"
>>> observed_result("CC(C)[C@H]1CN(C)C(=O)N1c1ccnc(NC2(c3ccc(-c4ccnc(C(F)(F)F)c4)cn3)CC2)n1")
"6.00 to 7.00"
>>> observed_result("CC(C)[C@H]1CNC(=O)N1c1ccnc(NC2(c3ccc(-c4ccc(Cl)cc4)cc3)CC2)n1")
"6.00 to 7.00"
